Ref: ChEMBL document CHEMBL1157715

Record type: pKi measurement. Applies to: UniProtKB P35372
Sequence (P35372 whole entry): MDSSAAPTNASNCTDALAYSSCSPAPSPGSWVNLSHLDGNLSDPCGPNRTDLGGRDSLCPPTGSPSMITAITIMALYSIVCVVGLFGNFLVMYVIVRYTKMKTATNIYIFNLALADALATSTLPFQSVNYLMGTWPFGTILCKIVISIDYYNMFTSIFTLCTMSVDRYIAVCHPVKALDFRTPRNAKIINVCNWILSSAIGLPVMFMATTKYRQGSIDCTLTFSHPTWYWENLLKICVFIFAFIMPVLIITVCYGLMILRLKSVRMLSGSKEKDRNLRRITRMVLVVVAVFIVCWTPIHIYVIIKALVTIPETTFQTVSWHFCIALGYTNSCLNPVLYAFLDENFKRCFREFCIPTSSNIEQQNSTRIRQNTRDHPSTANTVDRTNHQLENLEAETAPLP
One number for each entry, as −log10 of the molar value.

Use these answered entries as a reference point.
CC[C@@]12CCN(CCc3ccc(F)cc3)C[C@@H]1Oc1c(O)cccc12 (racemic) ... 6.45
CC[C@@]12CCN(CCc3ccc([N+](=O)[O-])cc3)C[C@@H]1Oc1c(O)cccc12 (racemic) ... 6.17
CC[C@@]12CCN(C)C[C@@H]1Oc1c(O)cccc12 (racemic) ... 6.10
CC[C@@]12CCN(CC3CC3)C[C@@H]1Oc1c(O)cccc12 (racemic) ... 5.33
CC[C@@]12CCN(CCc3ccccc3)C[C@@H]1Oc1ccc(O)cc12 ... 9.15

Would you mind listing pKi for each of the following compounds?
1. Oc1ccc2c(c1)C1CCN(CCc3ccccc3)CC1O2 (stereo not given)
2. CN1CC[C@@]2(CCc3ccccc3)c3cccc(O)c3O[C@H]2C1 (racemic)
3. CC[C@@]12CCN(CCc3ccccc3)C[C@@H]1Oc1c(O)cccc12 (racemic)
4. Oc1ccc2c(c1)C1CCN(CC3CC3)CC1O2 (stereo not given)

Result:
1: 9.05; 2: 6.13; 3: 5.79; 4: 8.40

###

# test-system: Kappa-type opioid receptor (Homo sapiens)
# Sequence (P41145 whole entry): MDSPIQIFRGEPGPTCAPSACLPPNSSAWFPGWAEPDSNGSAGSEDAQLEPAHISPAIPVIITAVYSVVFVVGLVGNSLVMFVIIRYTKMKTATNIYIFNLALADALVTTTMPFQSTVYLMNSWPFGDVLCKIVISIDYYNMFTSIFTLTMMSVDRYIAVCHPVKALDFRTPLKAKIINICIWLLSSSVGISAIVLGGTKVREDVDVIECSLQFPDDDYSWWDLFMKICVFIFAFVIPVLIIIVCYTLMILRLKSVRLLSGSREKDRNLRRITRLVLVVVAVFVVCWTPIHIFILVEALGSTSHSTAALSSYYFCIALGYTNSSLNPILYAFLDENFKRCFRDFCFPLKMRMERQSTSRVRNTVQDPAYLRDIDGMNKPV
# assay-details: Displacement of [3H]U69593 from kappa opioid receptor expressed in CHO cells
# Format: cell-based
readout-name: Ki

CC[C@@]12CCN(CCc3ccc([N+](=O)[O-])cc3)C[C@@H]1Oc1c(O)cccc12 (racemic) ... 720 nM
CC[C@@]12CCN(CCc3ccc(F)cc3)C[C@@H]1Oc1c(O)cccc12 (racemic) ... 935 nM

For the next question, use this compound.
Q: API: value(readout=Ki, system=Kappa-type opioid receptor (Homo sapiens)) for record CC[C@@]12CCN(C)C[C@@H]1Oc1c(O)cccc12 (racemic)
Result: > 10000 nM

###

# test-system: Kappa-type opioid receptor (Homo sapiens)
Could you please report measured pKi for the items listed next?
Give bare numbers, as −log10 of the molar value.

Use these answered entries as a reference point.
CC[C@@]12CCN(Cc3ccc(F)cc3)C[C@@H]1Oc1c(O)cccc12 (racemic) ... 5.47
CN1CC[C@@]2(CCc3ccccc3)c3cccc(O)c3O[C@H]2C1 (racemic) ... 5.54
CC[C@@]12CCN(CCc3ccccc3)C[C@@H]1Oc1ccc(O)cc12 ... 7.06
CC[C@@]12CCN(CC3CC3)C[C@@H]1Oc1c(O)cccc12 (racemic) ... 5.00

For the next question, use this compound.
Q: May I ask what pKi has been recorded for CC[C@@]12CCN(CCc3ccccc3)C[C@@H]1Oc1c(O)cccc12 (racemic) ?
Result: 5.65

###

Could you please report measured pKi for the items listed next?
# test-system: Delta-type opioid receptor (Homo sapiens, UniProt P41143)
# Sequence (P41143 whole entry): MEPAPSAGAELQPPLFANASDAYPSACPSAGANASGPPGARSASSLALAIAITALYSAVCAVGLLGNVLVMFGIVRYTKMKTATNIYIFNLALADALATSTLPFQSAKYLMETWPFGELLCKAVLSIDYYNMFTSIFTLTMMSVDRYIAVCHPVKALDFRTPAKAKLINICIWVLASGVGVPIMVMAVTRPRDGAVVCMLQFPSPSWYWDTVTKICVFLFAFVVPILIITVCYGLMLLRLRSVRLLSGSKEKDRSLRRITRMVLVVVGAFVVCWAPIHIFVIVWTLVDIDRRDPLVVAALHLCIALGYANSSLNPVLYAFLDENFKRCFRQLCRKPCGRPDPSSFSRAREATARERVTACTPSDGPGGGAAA
# assay-details: Displacement of [3H]DADLE from delta opioid receptor expressed in CHO cells
Give bare numbers, as −log10 of the molar value.

Use these answered entries as a reference point.
CC[C@@]12CCN(C)C[C@@H]1Oc1c(O)cccc12 (racemic) ... 5.13
CC[C@@]12CCN(CCc3ccc([N+](=O)[O-])cc3)C[C@@H]1Oc1c(O)cccc12 (racemic) ... 5.65
CC[C@@]12CCN(CCc3ccccc3)C[C@@H]1Oc1c(O)cccc12 (racemic) ... 5.14
CC[C@@]12CCN(CC3CC3)C[C@@H]1Oc1c(O)cccc12 (racemic) ... 5.21

For the next question, use this compound.
Q: May I ask what pKi has been recorded for CC[C@@]12CCN(CCc3ccccc3)C[C@@H]1Oc1ccc(O)cc12 ?
Result: 7.12
